System: HOP-62 NSCLC
Experiment: NCI tumour cell line growth inhibition, 48 h
As shown below, each of these compounds has a reported GI50 value.

[
  {
    "compound": "Fc1ccc2nc(-c3cc(-c4ccc5c(c4)OCO5)n[nH]3)[nH]c2c1",
    "GI50": "5.44 µM"
  },
  {
    "compound": "COc1ccc(-n2nc(C)c3c(Nc4ccc(NC(=O)Nc5ccc(Cl)c(C(F)(F)F)c5)cc4)ncnc32)cc1",
    "GI50": "1.83 µM"
  },
  {
    "compound": "COc1cccc2c(=O)c3c(sc12)c(NCCCNCCO)nc1ccccc13",
    "GI50": "1.2 µM"
  },
  {
    "compound": "COC(=O)c1ccc2c(c1)C(=O)c1c-2n(CCCN=[N+]=[N-])c(=O)c2cc([N+](=O)[O-])ccc12",
    "GI50": "25.8 µM"
  },
  {
    "compound": "Nc1ccc(-c2nn3c(COc4ccc(Cl)cc4)nnc3s2)cc1",
    "GI50": "20.2 µM"
  },
  {
    "compound": "CCn1c(-c2nonc2N)nc2ccncc21",
    "GI50": "> 25 µM"
  },
  {
    "compound": "CCCCCCCCCCCCCC[n+]1cccc(C(N)=O)c1",
    "GI50": "1.35 µM"
  },
  {
    "compound": "CC(=O)[CH-]C(=O)c1ccccc1.CC(=O)[CH-]C(=O)c1ccccc1.CC1(C)OCC(C2OC3OC(C)(C)OC3C2[O-])O1.CC[O-].[Ti+4] (centres undefined)",
    "GI50": "15.9 µM"
  },
  {
    "compound": "CC(=Nc1ccc(S(N)(=O)=O)cc1)c1c(O)[nH]c2ccccc12",
    "GI50": "> 14.5 µM"
  }
]

Values compiled from PubChem BioAssay (NCI).
